# Tested on: ABC-1
# method summary: relative viability (nuclei count vs DMSO), 5 days (fraction); higher = more cells survive
# condition: first compound 0.2 µM
Each record here notes measured relative viability.
measured attribute: relative viability

compound="COCC1(CO)C(=O)C2CCN1CC2 (centres undefined) [PRIMA-1MET] + O=C(CCCCCCC(=O)Nc1ccccc1)NO [Vorinostat] (partner 1 µM)" experimental_result=1.01
compound="COCC1(CO)C(=O)C2CCN1CC2 (centres undefined) [PRIMA-1MET] + CS(=O)(=O)CCNCc1ccc(-c2ccc3ncnc(Nc4ccc(OCc5cccc(F)c5)c(Cl)c4)c3c2)o1 [Lapatinib] (partner 2 µM)" experimental_result=1.05
compound="COCC1(CO)C(=O)C2CCN1CC2 (centres undefined) [PRIMA-1MET] + CS(=O)(=O)N1CCN(Cc2cc3nc(-c4cccc5[nH]ncc45)nc(N4CCOCC4)c3s2)CC1 [Pictilisib] (partner 1 µM)" experimental_result=0.71
compound="COCC1(CO)C(=O)C2CCN1CC2 (centres undefined) [PRIMA-1MET] + CC(C)C[C@H](NC(=O)[C@H](Cc1ccccc1)NC(=O)c1cnccn1)B(O)O [Bortezomib] (partner 0.002 µM)" experimental_result=0.297
